# test_name: Association constant of compound was evaluated at pH 5
# Assay type: ADME
Recorded Ka by entry

compound	value_qualifier	Ka [M⁻¹]
CC(=O)N[C@@H]1[C@H](O[C@@H]2c3ccc(c(Cl)c3)Oc3cc4cc(c3O)Oc3ccc(cc3Cl)C[C@H]3NC(=O)[C@H](N)c5ccc(O)c(c5)Oc5cc(O)cc(c5)[C@H](NC3=O)C(=O)N[C@H]4C(=O)N[C@H]3C(=O)N[C@@H]2C(=O)N[C@H](C(=O)O)c2cc(O)cc(O)c2-c2cc3ccc2O)O[C@@H](CO)[C@@H](O)[C@@H]1O	=	2.6e+06
CC(=O)N[C@@H]1[C@H](O[C@@H]2c3ccc(c(Cl)c3)Oc3cc4cc(c3O)Oc3ccc(cc3Cl)C[C@H]3NC(=O)[C@H](N)c5ccc(O)c(c5)Oc5cc(O)cc(c5)[C@H](NC3=O)C(=O)N[C@H]4C(=O)N[C@H]3C(=O)N[C@@H]2C(=O)N[C@H](C(=O)O)c2cc(O)cc(O[C@H]4O[C@H](CO)[C@@H](O)[C@@H](O)[C@@H]4O)c2-c2cc3ccc2O)O[C@@H](CO)[C@@H](O)[C@@H]1O	=	1200000
CCCCC/C=C/CCC(=O)N[C@@H]1[C@H](Oc2c3cc4cc2Oc2ccc(cc2Cl)[C@@H](O[C@@H]2O[C@@H](CO)[C@@H](O)[C@H](O)[C@@H]2NC(C)=O)[C@@H]2NC(=O)[C@H](NC(=O)[C@@H]4NC(=O)[C@H]4NC(=O)[C@@H](Cc5ccc(c(Cl)c5)O3)NC(=O)[C@H](N)c3ccc(O)c(c3)Oc3cc(O)cc4c3)c3ccc(O)c(c3)-c3c(O[C@H]4O[C@H](CO)[C@@H](O)[C@@H](O)[C@@H]4O)cc(O)cc3[C@@H](C(=O)O)NC2=O)O[C@@H](CO)[C@@H](O)[C@@H]1O	=	1600000
N[C@H]1C(=O)NC2Cc3ccc(c(Cl)c3)Oc3cc4cc(c3O)Oc3ccc(cc3Cl)/C=C3\NC(=O)C(NC(=O)C4NC(=O)C(NC2=O)c2cc(O)cc(c2)Oc2cc1ccc2O)c1ccc(O)c(c1)-c1c(O)cc(O)cc1[C@@H](C(=O)O)NC3=O (stereo in doubt; 4)	<	100
N[C@H]1C(=O)NC2Cc3ccc(c(Cl)c3)Oc3cc4cc(c3O)Oc3ccc(cc3Cl)C/C3=N\C(=O)C(NC(=O)C4NC(=O)C(NC2=O)c2cc(O)cc(c2)Oc2cc1ccc2O)c1ccc(O)c(c1)-c1c(O[C@H]2O[C@H](CO)[C@@H](O)[C@@H](O)[C@@H]2O)cc(O)cc1[C@@H](C(=O)O)NC3=O (some centres not stated)	=	380000
N[C@H]1C(=O)N[C@@H]2Cc3ccc(c(Cl)c3)Oc3cc4cc(c3O)Oc3ccc(cc3Cl)[C@@H](O)[C@@H]3NC(=O)[C@H](NC(=O)[C@@H]4NC(=O)[C@@H](NC2=O)c2cc(O)cc(c2)Oc2cc1ccc2O)c1ccc(O)c(c1)-c1c(O)cc(O)cc1[C@@H](C(=O)O)NC3=O	=	2.5e+06
CCCCC/C=C/CCC(=O)N[C@@H]1[C@H](Oc2c3cc4cc2Oc2ccc(cc2Cl)CC2NC(=O)[C@H](N)c5ccc(O)c(c5)Oc5cc(O)cc(c5)C(NC2=O)C(=O)NC4C(=O)NC2C(=O)/N=C(\Cc4ccc(c(Cl)c4)O3)C(=O)N[C@H](C(=O)O)c3cc(O)cc(O[C@H]4O[C@H](CO)[C@@H](O)[C@@H](O)[C@@H]4O)c3-c3cc2ccc3O)O[C@@H](CO)[C@@H](O)[C@@H]1O (some centres not stated)	=	390000
